- CONDITION_PARAMETERS: 298.15 K; 2000 kPa; Liquid
EXPERIMENTAL_ENDPOINT: mass density (kg/m3)

>>> result_value("CCCCCl")
882.6
>>> result_value("CN(C)C=O [dimethylformamide]")
945
>>> result_value("CC(=O)N(C)C [N,N-dimethylethanamide]")
938.1
>>> result_value("CCCCCCCl")
874.8
